Value source: PubChem BioAssay AID493000

Assay: nonspecific enhancement of M3R calcium signal without RGS4 – HEK293 M3R, non-induced cells, counter-screen for RGS4 inhibitor project, confirmation (AID 493000);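 also: RGS4 induction absent so cells express M3R without RGS4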
Settings: carbachol calcium Fluo-4, at 10 µM, submaximal (EC20) carbachol stimulus, buffer wells 0%, carbachol control wells 100%
In all, about 1,900 compounds went through this assay and about 390 (21%) were called active. No rule for the calls is given here. A selection follows.
The reply should be one of these categories: true for active, false for inactive

{"compound": "CCCCOC(=O)CNc1nnc(SCC(=O)OCC)[nH]c1=O", "category.label": "false"}
{"compound": "Cc1ccc(Nc2nc(N)nc(CN3CCN(Cc4ccccc4)CC3)n2)cc1Cl", "category.label": "false"}
{"compound": "CCOC(=O)C1=NN(c2ccc(Cl)cc2)/C(=C/C2=NCCc3cc(OC)c(OC)cc32)S1", "category.label": "false"}
{"compound": "Oc1ccc(/C=N/Nc2ccc(C(F)(F)F)cn2)cc1O", "category.label": "true"}
{"compound": "Nc1cccc(-c2cc(-c3ccccc3)nc(-c3cccc(N)c3)n2)c1", "category.label": "false"}

Q) Field: outcome | Entry: COc1ccc(NCc2nnc(SCc3ccccc3)n2-c2ccc(OC)cc2)cc1
A) false

Q) Field: outcome | Entry: Cc1c(NC(=O)c2coc(=O)c(Br)c2)c(=O)n(-c2ccccc2)n1C
A) false

Q) Field: outcome | Entry: Cn1c(-c2ccco2)nc2cc3ccccc3cc21
A) false

Q) Field: outcome | Entry: CCC(c1nnnn1Cc1ccco1)N(Cc1cc2cc(OC)ccc2[nH]c1=O)C1CCCCC1 (configuration not stated)
A) false

Q) Field: outcome | Entry: CCCCC1S/C(=N/N=C/c2cccs2)NC1=O (configuration not stated)
A) false

Q) Field: outcome | Entry: COc1ccc(OC)c(S(=O)(=O)N2CCCC(C(=O)N3CCC(C(N)=O)CC3)C2)c1 (configuration not stated)
A) false

Q) Field: outcome | Entry: CC(C)c1nc(SCC(=O)Nc2cccc(C(=O)O)c2)c2c3c(sc2n1)CCCC3
A) true
